System: LC-1-sq (Squamous Cell Lung Carcinoma);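 note: after 72 h of two-drug dosing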
Test: Bliss excess, mean over the matrix (fraction); higher = more synergy
quantity: Bliss excess
Please give the numeric answer without any surrounding text.

Observe how each entry below is paired with its result.
COc1nnc2ccc(N3CCC(c4ccc(OCCN5CCN(C)C(=O)[C@H]5C)cc4)CC3)nn12 [AZD5153] + CCN(CCO)CCCOc1ccc2c(Nc3cc(CC(=O)Nc4cccc(F)c4)[nH]n3)ncnc2c1 [AZD2811] (first compound max 1 µM, 7x7, partner max 1 µM): -0.0282
Cc1c2c(nn1C)CSCc1cc(n(C)n1)CSc1cc(c3ccccc3c1)OCCCc1c(C(=O)O)n(C)c3c-2c(Cl)ccc13 [AZD5991] + CCN(CCO)CCCOc1ccc2c(Nc3cc(CC(=O)Nc4cccc(F)c4)[nH]n3)ncnc2c1 [AZD2811] (first compound max 1 µM, 7x7, partner max 1 µM): 0.0425
Cc1c2c(nn1C)CSCc1cc(n(C)n1)CSc1cc(c3ccccc3c1)OCCCc1c(C(=O)O)n(C)c3c-2c(Cl)ccc13 [AZD5991] + C=CCn1c(=O)c2cnc(Nc3ccc(N4CCN(C)CC4)cc3)nc2n1-c1cccc(C(C)(C)O)n1 [AZD1775] (first compound max 1 µM, partner max 1 µM): -0.0139

For the compound NC1(C(=O)N[C@@H](CCO)c2ccc(Cl)cc2)CCN(c2ncnc3[nH]ccc23)CC1 [Capivasertib] + COc1nnc2ccc(N3CCC(c4ccc(OCCN5CCN(C)C(=O)[C@H]5C)cc4)CC3)nn12 [AZD5153] (first compound max 10 µM, 7x7, partner max 1 µM) , what Bliss excess is on record?
0.0814

For the compound NC1(C(=O)N[C@@H](CCO)c2ccc(Cl)cc2)CCN(c2ncnc3[nH]ccc23)CC1 [Capivasertib] + Cn1cnc2c(F)c(Nc3ccc(Br)cc3Cl)c(C(=O)NOCCO)cc21 [Selumetinib] (first compound max 10 µM, 7x7, partner max 10 µM) , what Bliss excess is on record?
0.0027

For the compound C[C@@H](c1ccc2nccn2c1)n1nnc2ncc(-c3cnn(C)c3)nc21 [Savolitinib] + CN(CC[C@H](CSC1=CC=CC=C1)NC2=C(C=C(C=C2)S(=O)(=O)NC(=O)C3=CC=C(C=C3)N4CCC(CC4)[C@H](C5=CC=CC=C5C6=CC=C(C=C6)Cl)O)S(=O)(=O)C(F)(F)F)CCO [AZD4320] (first compound max 1 µM, 7x7, partner max 1 µM) , what Bliss excess is on record?
-0.059

For the compound Cc1cc2ncnn2cc1Nc1ncc2c(n1)n(C1CCOCC1)c(=O)n2C [AZD7648] + C[C@@H]1COCCN1C2=NC(=NC(=C2)C3(CC3)[S@](=N)(=O)C)C4=C5C=CNC5=NC=C4 [AZD6738] (first compound max 10 µM, 7x7, partner max 10 µM) , what Bliss excess is on record?
0.0311
